Measured viability, T/C, listed per entry for reference.
- Test system: NCI-H23 complex spheroids with HUVEC/MSC, viability
- run-description: Anticancer human tumor NCI-H23 cell line growth inhibition [RAS];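 note: spheroids exposed to compound for 7 days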;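 for viability, T/C: 100% = DMSO vehicle control viability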
- measurement-conditions: second compound 0.1 µM; first compound 3.16 µM; stronger effect = lower value

compound: CCC(CC)c1cc(NC2CCC(N)C2)n2nccc2n1 (stereo not drawn) + C#Cc1c(F)ccc2cc(O)cc(-c3ncc4c(N5CC6CCC(C5)N6)nc(OCC56CCCN5CC(F)C6)nc4c3F)c12
viability, T/C: 9.22%

Prompt line: Recorded viability, T/C of CC(C)NCC(C(=O)N1CCN(c2ncnc3c2C(C)CC3O)CC1)c1ccc(Cl)cc1 (stereo not drawn) + C=CC(=O)N1CCN(c2nc(OCC3CCCN3C)nc3c(F)c(-c4nc(N)cc(C)c4C(F)(F)F)c(Cl)cc23)C(C)C1 , please.
Response line: 20.2%

Prompt line: Any idea what viability, T/C was measured for CCC(CC)c1cc(NC2CCC(N)C2)n2nccc2n1 (stereo not drawn) + C=CC(=O)N1CCN(c2nc(OCC3CCCN3C)nc3c(F)c(-c4nc(N)cc(C)c4C(F)(F)F)c(Cl)cc23)C(C)C1 ?
Response line: 2.7%

###

- System: NCI-H23 complex spheroids with HUVEC/MSC, viability
- run-description: Anticancer human tumor NCI-H23 cell line growth inhibition [RAS];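 note: spheroids exposed to compound for 7 days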;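 for viability, T/C: 100% = DMSO vehicle control viability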
- measurement-conditions: second compound 0.003 µM; first compound 3.16 µM; stronger effect = lower value
result-type: viability, T/C (%)
Give the value in % but do not write % after it.

Look over these answered cases.
molecule: C[C@@H](NC(=O)c1ncnc(N)c1Cl)c1ncc(C(=O)Nc2cc(C(F)(F)F)c(Cl)cn2)s1 + CCn1c(-c2cc(N3CCN(C)CC3)cnc2C(C)OC)c2c3cc(ccc31)-c1csc(n1)CC(NC(=O)C1CC1C)C(=O)N1CCCC(N1)C(=O)OCC(C)(C)C2
measured-number: 38.5
--
molecule: C[C@@H](NC(=O)c1ncnc(N)c1Cl)c1ncc(C(=O)Nc2cc(C(F)(F)F)c(Cl)cn2)s1 + CCn1c(-c2cccnc2C(C)OC)c2c3cc(ccc31)N1CCOC(CC(NC(=O)C(C(C)C)N(C)C(=O)C3(F)CCN(C(=O)C#CC(C)(C)N(C)C)CC3)C(=O)N3CCCC(N3)C(=O)OCC(C)(C)C2)C1
measured-number: 31.2
--
molecule: Cc1nc(N2CCC3(CC2)COC(C)C3N)c(CO)nc1Sc1ccnc(N)c1Cl (centres undefined) + CCn1c(-c2cccnc2C(C)OC)c2c3cc(ccc31)N1CCOC(CC(NC(=O)C(C(C)C)N(C)C(=O)C3(F)CCN(C(=O)C#CC(C)(C)N(C)C)CC3)C(=O)N3CCCC(N3)C(=O)OCC(C)(C)C2)C1
measured-number: 12.2

Prompt line: Quick one: viability, T/C for CCC(CC)c1cc(NC2CCC(N)C2)n2nccc2n1 (centres undefined) + CCn1c(-c2cc(N3CCN(C)CC3)cnc2C(C)OC)c2c3cc(ccc31)-c1csc(n1)CC(NC(=O)C1CC1C)C(=O)N1CCCC(N1)C(=O)OCC(C)(C)C2 ?
Response line: 2.67

###

- System: NCI-H23 complex spheroids with HUVEC/MSC, viability
- run-description: Anticancer human tumor NCI-H23 cell line growth inhibition [RAS];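 note: spheroids exposed to compound for 7 days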
- measurement-conditions: curve of first compound; second compound 1 µM
pIC50: −log10 of the molar value.
Attribute: pIC50

Solved entries:
compound: CC(Nc1ccc2c(c1)OCCn1cc(N3C(=O)OCC3C(F)F)nc1-2)C(N)=O (configuration not stated) + C#Cc1c(F)ccc2cc(O)cc(-c3ncc4c(N5CC6CCC(C5)N6)nc(OCC56CCCN5CC(F)C6)nc4c3F)c12
result: < 5.00
//
compound: C=CC(=O)Nc1cc(Nc2nccc(-c3cn(C)c4ccccc34)n2)c(OC)cc1N(C)CCN(C)C + C#Cc1c(F)ccc2cc(O)cc(-c3ncc4c(N5CC6CCC(C5)N6)nc(OCC56CCCN5CC(F)C6)nc4c3F)c12
result: < 6.00
//
compound: CC(=O)OC12COC1CC(O)C1(C)C(=O)C(O)C3=C(C)C(OC(=O)C(O)C(NC(=O)OC(C)(C)C)c4ccccc4)CC(O)(C(OC(=O)c4ccccc4)C21)C3(C)C (configuration not stated) + C#Cc1c(F)ccc2cc(O)cc(-c3ncc4c(N5CC6CCC(C5)N6)nc(OCC56CCCN5CC(F)C6)nc4c3F)c12
result: > 7.50

Prompt line: Name the recorded pIC50 for CCN1CCN(Cc2ccc(Nc3ncc(F)c(-c4cc(F)c5nc(C)n(C(C)C)c5c4)n3)nc2)CC1 + C=CC(=O)N1CCN(c2nc(OCC3CCCN3C)nc3c(F)c(-c4nc(N)cc(C)c4C(F)(F)F)c(Cl)cc23)C(C)C1 .
Response line: > 8.50

Prompt line: What value of measured pIC50 is listed for CC(C)NCC(C(=O)N1CCN(c2ncnc3c2C(C)CC3O)CC1)c1ccc(Cl)cc1 (configuration not stated) + C=CC(=O)N1CCN(c2nc(OCC3CCCN3C)nc3c(F)c(-c4nc(N)cc(C)c4C(F)(F)F)c(Cl)cc23)C(C)C1 ?
Response line: > 7.50

Prompt line: Reported pIC50 for Cc1nc(N2CCC3(CC2)COC(C)C3N)c(CO)nc1Sc1ccnc(N)c1Cl (configuration not stated) + C=CC(=O)N1CCN(c2nc(OCC3CCCN3C)nc3c(F)c(-c4nc(N)cc(C)c4C(F)(F)F)c(Cl)cc23)C(C)C1 : what is it?
Response line: > 7.50

Prompt line: Quick one: pIC50 for CCC(CC)c1cc(NC2CCC(N)C2)n2nccc2n1 (configuration not stated) + C=CC(=O)N1CCN(c2nc(OCC3CCCN3C)nc3c(F)c(-c4nc(N)cc(C)c4C(F)(F)F)c(Cl)cc23)C(C)C1 ?
Response line: > 7.50

###

- Tested on: NCI-H23 complex spheroids with HUVEC/MSC, viability
- run-description: Anticancer human tumor NCI-H23 cell line growth inhibition [RAS]; active = viability on the fitted dose curve at most 10% of control; inactive = the rest;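 note: spheroids exposed to compound for 7 days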
- measurement-conditions: second compound 0.0949 µM; first compound 0.0316 µM
Permitted responses: true (1) for active, false (0) for inactive

A selection of reference data follows.
compound: Cc1nc(N2CCC3(CC2)COC(C)C3N)c(CO)nc1Sc1ccnc(N)c1Cl (stereo not drawn) + CCn1c(-c2cccnc2C(C)OC)c2c3cc(ccc31)N1CCOC(CC(NC(=O)C(C(C)C)N(C)C(=O)C3(F)CCN(C(=O)C#CC(C)(C)N(C)C)CC3)C(=O)N3CCCC(N3)C(=O)OCC(C)(C)C2)C1
category-label: false (0)
--
compound: Nc1ccn(C2OC(CO)C(O)C2(F)F)c(=O)n1 (stereo not drawn) + CCn1c(-c2cccnc2C(C)OC)c2c3cc(ccc31)N1CCOC(CC(NC(=O)C(C(C)C)N(C)C(=O)C3(F)CCN(C(=O)C#CC(C)(C)N(C)C)CC3)C(=O)N3CCCC(N3)C(=O)OCC(C)(C)C2)C1
category-label: true (1)

Proceed to the following item.
Prompt line: Please share the test call associated with CC(Nc1ccc2c(c1)OCCn1cc(N3C(=O)OCC3C(F)F)nc1-2)C(N)=O (stereo not drawn) + CCn1c(-c2cc(N3CCN(C)CC3)cnc2C(C)OC)c2c3cc(ccc31)-c1csc(n1)CC(NC(=O)C1CC1C)C(=O)N1CCCC(N1)C(=O)OCC(C)(C)C2 .
Response line: false (0)

###

Measured viability, T/C, listed per entry.
- Test system: NCI-H23 complex spheroids with HUVEC/MSC, viability
- run-description: Anticancer human tumor NCI-H23 cell line growth inhibition [RAS];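 note: spheroids exposed to compound for 7 days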;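 for viability, T/C: 100% = DMSO vehicle control viability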
- measurement-conditions: second compound 0.000949 µM; first compound 0.01 µM; stronger effect = lower value
Respond with the bare value in %.

compound: C=CC(=O)N1CCN(c2nc(OCC3CCCN3C)nc3c(F)c(-c4nc(N)cc(C)c4C(F)(F)F)c(Cl)cc23)C(C)C1 (stereo unspecified) + CCn1c(-c2cc(N3CCN(C)CC3)cnc2C(C)OC)c2c3cc(ccc31)-c1csc(n1)CC(NC(=O)C1CC1C)C(=O)N1CCCC(N1)C(=O)OCC(C)(C)C2
result-type: viability, T/C
measured-number: 33
--
compound: CC(C)n1nc(-c2ccc3oc(N)nc3c2)c2c(N)ncnc21 + CCn1c(-c2cccnc2C(C)OC)c2c3cc(ccc31)N1CCOC(CC(NC(=O)C(C(C)C)N(C)C(=O)C3(F)CCN(C(=O)C#CC(C)(C)N(C)C)CC3)C(=O)N3CCCC(N3)C(=O)OCC(C)(C)C2)C1
result-type: viability, T/C
measured-number: 18.4
--
compound: CCN1CCN(Cc2ccc(Nc3ncc(F)c(-c4cc(F)c5nc(C)n(C(C)C)c5c4)n3)nc2)CC1 + CCn1c(-c2cccnc2C(C)OC)c2c3cc(ccc31)N1CCOC(CC(NC(=O)C(C(C)C)N(C)C(=O)C3(F)CCN(C(=O)C#CC(C)(C)N(C)C)CC3)C(=O)N3CCCC(N3)C(=O)OCC(C)(C)C2)C1
result-type: viability, T/C
measured-number: 26.4
--
compound: C=CC(=O)Nc1cc(Nc2nccc(-c3cn(C)c4ccccc34)n2)c(OC)cc1N(C)CCN(C)C + CCn1c(-c2cccnc2C(C)OC)c2c3cc(ccc31)N1CCOC(CC(NC(=O)C(C(C)C)N(C)C(=O)C3(F)CCN(C(=O)C#CC(C)(C)N(C)C)CC3)C(=O)N3CCCC(N3)C(=O)OCC(C)(C)C2)C1
result-type: viability, T/C
measured-number: 38.4
--
compound: O=C(c1ccc(F)c(F)c1Nc1ccc(I)cc1F)N1CC(O)([C@@H]2CCCCN2)C1 + CCn1c(-c2cccnc2C(C)OC)c2c3cc(ccc31)N1CCOC(CC(NC(=O)C(C(C)C)N(C)C(=O)C3(F)CCN(C(=O)C#CC(C)(C)N(C)C)CC3)C(=O)N3CCCC(N3)C(=O)OCC(C)(C)C2)C1
result-type: viability, T/C
measured-number: 33.2

Consider the additional compound presented here.
Prompt line: If you can, please state the reported viability, T/C value of Nc1ccn(C2OC(CO)C(O)C2(F)F)c(=O)n1 (stereo unspecified) + CCn1c(-c2cccnc2C(C)OC)c2c3cc(ccc31)N1CCOC(CC(NC(=O)C(C(C)C)N(C)C(=O)C3(F)CCN(C(=O)C#CC(C)(C)N(C)C)CC3)C(=O)N3CCCC(N3)C(=O)OCC(C)(C)C2)C1 .
Response line: 1.89

The measurements presented in this section are drawn from PubChem BioAssay AID2060885.
